# experimental protocol: Effect of co-administered extracts on the pharmacokinetics of theophylline in rats
# measurement parameters: male, Wistar, rat, in vivo, Concentration of Theophylline in Rat Serum, Mean, Group 3 (Jarsin 300 pretreatment 3 days); aminophylline 240 mg/kg p.o.; 15 min; mean n=6
result type: concentration at 15 min (ng/mL)
# unit: ng/mL | format: bare number

Which concentration at 15 min value is on record for Cn1c(=O)c2[nH]cnc2n(C)c1=O [Theophylline, 1,3-dimethylxantin] ?
5170

----------
# experimental protocol: Effect of co-administered extracts on the pharmacokinetics of theophylline in rats
# measurement parameters: male, Wistar, rat, in vivo, Concentration of Theophylline in Rat Serum, Mean, Group 2 (CRE pretreatment 3 days); aminophylline 240 mg/kg p.o.; 360 min; mean n=6
result type: concentration at 360 min (µg/mL)
# unit: µg/mL | format: bare number

Which concentration at 360 min value is on record for Cn1c(=O)c2[nH]cnc2n(C)c1=O [Theophylline, 1,3-dimethylxantin] ?
71

Every entry's value here was drawn from patent US6905706B2.
